Reported fold change of 2-Phenylethylamine concentration values follow for various molecules
system: Ruminococcus gnavus DSM 108212; experiment: fold change of 2-Phenylethylamine concentration vs plate DMSO controls (fold change (ratio)); higher = more amine produced, active = hit call of the paper (significant change in both replicates, either direction); details: incubation time: 27 h, anaerobic, 37 °C
Hey, just send me the number, nothing else.

[
  {
    "molecule": "Clc1ccccc1C(c1ccccc1)(c1ccccc1)n1ccnc1 [Clotrimazole] (20 µM)",
    "result-value": 0.929
  },
  {
    "molecule": "O=C(O)CN(CCN(CC(=O)O)CC(=O)O)CCN(CC(=O)O)CC(=O)O [Pentetic acid] (20 µM)",
    "result-value": 0.997
  },
  {
    "molecule": "Oc1ccc(OCc2ccccc2)cc1 [Monobenzone] (20 µM)",
    "result-value": 0.828
  }
]

Problem: Value lookup for fold change of 2-Phenylethylamine concentration; key = Cc1ccc(S(=O)(=O)NC(=O)NN2CCCCCC2)cc1 [Tolazamide] (20 µM)
Solution: 1.18

Problem: Same question, NS(=O)(=O)c1cc2c(cc1Cl)NC(Cc1ccccc1)NS2(=O)=O (stereo unspecified) [Benzylhydrochlorothiazide] (20 µM) this time
Solution: 1.07

Problem: Next: O=C(CO)[C@@H](O)[C@H](O)[C@H](O)CO [D(-) Fructose] (50 µM)
Solution: 0.919
